These measurements were taken from PubChem BioAssay (NCI).

Tested on: NCI-H460 lung
TEST_DETAILS: NCI tumour cell line growth inhibition, 48 h
REPORTED_PROPERTY: TGI

COMPOUND	RECORDED_MEASUREMENT
CC(C)C[C@@H]1NC(=O)[C@@H]2CCCN2C(=O)[C@@H]2CCCN2C(=O)[C@H](CC(C)C)NC(=O)[C@H](CO)NC(=O)[C@H](CCCCN)NC(=O)[C@H]([C@H](C)O)NC(=O)[C@@H]2CCCC[C@@H](NC1=O)C(=O)N[C@@H](Cc1ccccc1)C(=O)N1CCC[C@H]1C(=O)N[C@@H](CC(=O)O)C(=O)NCC(=O)N[C@@H](CCCN=C(N)N)C(=O)N2	> 50 µM
CC(=O)c1c[nH]cc1CO	> 10 µM
CC(=O)OC[C@@H](OC(C)=O)[C@@H](OC(C)=O)[C@H]1OC[C@@H]2C[C@H]([C@H]1OC(C)=O)N(Cc1ccccc1)O2	> 100 µM
Fc1ccc(Nc2nnc(-c3ccccn3)s2)cc1	> 100 µM
COc1cc(C2(O)c3ccccc3C3=NCCN32)cc(OC)c1OC (configuration not stated)	> 100 µM
Clc1ccc2c(c1)-c1ccccc1C1=NCCN12	4.51 µM
C=C(C)[C@H](O)C(O)CC(C)[C@@H]1CCC23CC12CCC1[C@@]2(C)CCC(OC(C)=O)C(C)(C)C2CC(OC2OC(COC(C)=O)C(O)C(O)C2O)[C@]13C (some centres not stated)	11.5 µM

----------
Test system: ACHN renal
TEST_DETAILS: NCI tumour cell line growth inhibition, 48 h

SUBSTANCE_SMILES	MEASUREMENT_UNIT	LIMIT_QUALIFIER	TGI
Cc1ccc(N2C(=O)/C(=C/c3ccc(N(CCC#N)CCC#N)cc3C)N=C2c2cc([N+](=O)[O-])ccc2Cl)cc1	µM	>	100
COC(=O)[C@@]1(O)C[C@H]2O[C@]1(C)n1c3ccccc3c3c4c(c5c6ccccc6n2c5c31)C(=O)NC4	µM	=	3.07
COCCNC(=O)c1ccc(-c2nc3ccc4[nH]ncc4c3c3c2CCCC3)cc1	µM	=	57.7

----------
# maps each entry to its GI50
System: HOP-92 NSCLC
TEST_DETAILS: NCI tumour cell line growth inhibition, 48 h

MOLECULE	GI50
Cc1nn(-c2nc3ccccc3[nH]2)c2c1C(c1ccc3c(c1)OCO3)CC(=O)N2 (stereo not drawn)	2660 nM
C[CH2][Sn]([Cl])([Cl])[CH2]C	19700 nM
COc1cccc2c(=O)c3c(sc12)c(NCCN(C)C)nc1ccccc13	1030 nM
C=C1C(=O)O[C@H]2[C@H]1CC/C(CNS(=O)(=O)c1cccc3ccccc13)=C\CC[C@@]1(C)O[C@@H]21	1110 nM
O=Cc1ccc(O)c2ncccc12	5010 nM
O=C(CCCCCCC(=O)Nc1ccc2c(c1)/C(=C/c1ccc[nH]1)C(=O)N2)NO	317 nM
N#CC1=C(N)Oc2c(sc3c(F)cccc23)C1c1ccc(F)cc1 (stereo not drawn)	2360 nM
OC(CNc1ccnc2cc(Cl)ccc12)CNC1CCCCC1 (stereo not drawn)	1420 nM
Clc1ccc2c(c1)-c1ccccc1C1=NCCN12	1190 nM
O=C1/C(=C/c2ccc(Cl)cc2)COc2ccc(O)c(O)c21	2010 nM
C=C1CC[C@@H]2[C@](C)(COC(C)=O)[C@H](OC(C)=O)CC[C@@]2(C)[C@@H]1C/C=C1/C(=O)OC[C@H]1OC(C)=O	13200 nM
COCCNC(=O)c1ccc(-c2nc3ccc4[nH]ncc4c3c3c2CCCC3)cc1	1590 nM
COc1ccc2c(c1)OC(N)=C(C#N)C2c1ccc(F)cc1 (stereo not drawn)	8520 nM

----------
System: HOP-62 NSCLC
TEST_DETAILS: NCI tumour cell line growth inhibition, 48 h

COMPOUND	TGI
CCOC(=O)/C=C/c1c[nH]c(C(=O)OCC)c1	> 100 µM
CC(C)CCCC(C)[C@H]1CC[C@H]2[C@@H]3CC[C@H]4C[C@@H](CCC=C(c5cc(Cl)c(O)c(C(=O)O)c5)c5cc(Cl)c(O)c(C(=O)O)c5)CC[C@]4(C)[C@H]3CC[C@]12C (stereo not given in full) (tested in a mixture with another compound)	> 50 µM
COc1cc(C2c3cc4c(cc3OC(NCc3ccccc3)C2C)OCO4)cc(OC)c1OC (stereo not given)	> 64 µM
CCN(CC)CCC(=O)c1ccc(Oc2ccccc2)cc1	77.4 µM
O=P1(O)c2ccccc2Nc2cc(C(F)(F)F)ccc21	> 100 µM
COc1ccc(/C(C)=N/NC(=O)c2ccncc2)cc1OC	> 10 µM
C/C1=C\CC/C(C)=C/C=C(/C(C)C)CC/C(C(=O)O)=C/CC1	> 100 µM
CCSC(=O)/C=C1\CN(C(=O)OC(C)(C)C)C1C(=O)OC(C)(C)C (stereo not given)	28.9 µM
COc1ccc2nc(C)cc(Nc3ccccc3O)c2c1	> 100 µM
CC(C)(C)c1cc(C(=O)/C=C/c2ccc3c(c2)CCO3)cc(C(C)(C)C)c1O	> 93.7 µM
COc1cc(/C=C2\CC3C4CC[C@H]5C[C@@H](O)CC[C@]5(C)C4CC[C@]3(C)C2=O)cc(OC)c1OC (stereo not given in full)	49.2 µM
COc1cc(-c2oc(C=Nc3ccccc3)c([N+](=O)[O-])c2-c2ccc(O)c(OC)c2)ccc1O	> 100 µM
O=C(/C=C1/NC(=O)CS1)Nc1ccccc1	> 100 µM
Cc1ccc(N2C(=O)/C(=C/c3ccc(N(CCC#N)CCC#N)cc3C)N=C2c2cc([N+](=O)[O-])ccc2Cl)cc1	> 100 µM
Nc1nc(Cl)cc(NCCCCCCCCCCCCNc2cc(Cl)nc(N)n2)n1	35.2 µM
CC1=Nn2c(nnc2-c2ccc(N)cc2)NC(C)(C)C1	> 100 µM
COCCNC(=O)c1ccc(-c2nc3ccc4[nH]ncc4c3c3c2CCCC3)cc1	39.5 µM
Cc1ccc(C2=C(c3ccccc3)C(Br)(c3ccccc3)C(c3ccccc3)=C2c2ccc(C)cc2)cc1	> 100 µM
CC(=O)c1c[nH]cc1CO	> 10 µM
Cc1cccc2c1C/C(=C1\CCc3c(C)cccc31)C2=O	> 100 µM

----------
Test system: SK-OV-3 ovarian
TEST_DETAILS: NCI tumour cell line growth inhibition, 48 h

COMPOUND	TGI
Cc1cccc2c1C/C(=C1\CCc3c(C)cccc31)C2=O	> 100 µM
O=C(Cc1ccccc1)NNc1nc(NNC(=O)c2ccncc2)nc(Nc2ccc(Cl)cc2)n1	> 10 µM
Nc1nc(Cl)cc(NCCCCCCCCCCCCNc2cc(Cl)nc(N)n2)n1	> 100 µM
O=C(NCC(C(=O)OCc1ccccc1)C(=O)OCc1ccccc1)OCc1ccccc1	> 100 µM
C/C1=C\CC/C(C)=C/C=C(/C(C)C)CC/C(C(=O)O)=C/CC1	98.2 µM
CCSC(=O)/C=C1\CN(C(=O)OC(C)(C)C)C1C(=O)OC(C)(C)C (stereo unspecified)	28.2 µM
O=C1CCCC1NC(=O)C(F)(F)F (stereo unspecified)	> 100 µM
C[C@@H]1C[C@@]2(O[C@@H]2C)C(=O)O[C@@H]2CCN3CC=C(COC(=O)[C@]1(C)O)[C@H]23	> 100 µM
CCN(CC)c1cccc2c1C1(O)CCC3(CC21)OCCCCO3 (stereo unspecified)	> 100 µM
C=CCCCCCC(O)C(O)C/C=C\C/C=C\CC (stereo unspecified)	> 18.8 µM
CC(C)c1nc2c(Cl)c3ncccc3cc2[nH]c1=O	> 100 µM

----------
System: KM12 colon
TEST_DETAILS: NCI tumour cell line growth inhibition, 48 h
# maps each entry to its TGI
REPORTED_PROPERTY: TGI (µM)

COMPOUND	LIMIT_QUALIFIER	RECORDED_MEASUREMENT
O=C(NCCN1CCCC1)c1cn2c(ccc3sc4ccccc4c(=O)c32)n1	=	37.5
COc1ccc2c(c1)CCCN1Cc3ccccc3CC21 (stereo not given)	>	100
CN(C)CCNC(=O)c1cc2c3ccccc3[nH]c2c2ncccc12	=	77.4
[C-]#[N+]C(C)(C)C[C@H]1CC(C)C2CCC(C)C3([N+]#[C-])CCC(=C)C1[C@H]23 (stereo not given in full)	=	11.8
Clc1ccc(SCCCCCCCCCCSc2ccc(Cl)cc2)cc1	>	70.4
N#CN1CCC=C(c2cc3ccccc3[nH]2)C1	>	448
CCCCCCCCCC1CC(=O)NCC(=O)NC(C(C)C)C(=O)NC(CC(C)C)C(=O)NC(C)C(=O)NC(C(C)C)C(=O)O1 (stereo not given)	=	33.9
c1ccc2c3c([nH]c2c1)C1(CCCCC1)c1c([nH]c2ccccc12)C31CCCCC1	>	100
N/C(COc1ccc(Cl)cc1)=N\NC(=O)c1ccncc1	>	100
CC(C)(C)c1cc(C(=O)/C=C/c2ccc3c(c2)CCO3)cc(C(C)(C)C)c1O	=	3.66
